Exercise: state measured melting point for each of the molecules provided.

[in] GET /values?readout=melting point&item= NC(=O)c1ccc2occ(CCNC(=O)C3CC3)c2c1 [Example 68]
[out] 209 to 210 °C

[in] What value of measured melting point is listed for CNC(=O)c1ccc2occ(CCNC(=O)C3CCCC3)c2c1 [Example 72] ?
[out] 170 to 171 °C

[in] Please report the recorded melting point for COC(=O)Nc1ccc2occ(CCNC(C)=O)c2c1 [Example 58] .
[out] 138 to 140 °C

[in] // lookup melting point for COC(=O)c1ccc2occ(CCNC(=O)C3CC3)c2c1 [Example 65]
[out] 154 to 155 °C

[in] Fill in the blank: the reported melting point of CC(=O)NCCc1coc2ccc(NC(=O)OC(C)(C)C)cc12 [Example 76] is ____.
[out] 146 to 148 °C

[in] Param item = CNC(=O)c1ccc2occ(CCNC(C)=O)c2c1 [Example 71] ; retrieve measured melting point.
[out] 158 to 159 °C

[in] Which melting point value belongs to NC(=O)c1ccc2occ(CCNC(=O)c3ccco3)c2c1 [Example 69] ?
[out] 110 to 112 °C

[in] Reported melting point, molecule COC(=O)c1ccc2occ(CCNC(=O)C3CCCC3)c2c1 [Example 64] : ____
[out] 122 to 123 °C
